- System: TGFBR2
- EXPERIMENTAL_SETUP: Compound Concentration (nM):1000;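 note: KINOMEscan scanMAX binding as percent activity remaining versus control; lower means stronger binding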
Reported Percent Control values are given for each entry in this list.
The response must be a number in % with no trailing unit.

Record excerpt, results attached:
Prompt: Given the molecule `COc1ccc2cc(-c3c(-c4ccncc4)nc(-c4ccc(S(C)(=O)=O)cc4C)n3C)ccc2c1` , what is its reported Percent Control?
Response: 86

Prompt: Given the molecule COc1cc(C=NNc2ncnc3c2cnn3-c2ccccc2)ccc1O [GW513184X] , what is its reported Percent Control?
Response: 100

Continuing:
Prompt: Given the molecule C[C@@H](Oc1cc(-n2cnc3ccc(OC4CCN(C)CC4)cc32)sc1C(N)=O)c1ccccc1Cl [GSK579289A] , what is its reported Percent Control?
Response: 100

Prompt: Given the molecule Cl.O=C(Nc1ccc(Oc2ccc3[nH]c(NC(=O)c4ccco4)nc3c2)cc1)Nc1cc(C(F)(F)F)ccc1F [GW683134A] , what is its reported Percent Control?
Response: 89

Prompt: Given the molecule COc1cccc(-n2ncc3c(N/N=C/c4ccncc4)ncnc32)c1 [GW784752X] , what is its reported Percent Control?
Response: 100

Prompt: Given the molecule O=C1Nc2ccc(C(=O)c3ccco3)cc2C1=Cc1cc(Cl)c(O)c(Cl)c1 [GW406108X] , what is its reported Percent Control?
Response: 58

Prompt: Given the molecule CCS(=O)(=O)c1ccc(OC)c(Nc2ncc(-c3cccc(OC)c3)o2)c1 [GW580509X] , what is its reported Percent Control?
Response: 46

Prompt: Given the molecule COc1ccc2[nH]c3c4[nH]c5ccc(OC)cc5c4c4c(c3c2c1)C(=O)NC4=O [GW296115X] , what is its reported Percent Control?
Response: 100

====

- Test system: ABL1(T315I)-phosphorylated
- EXPERIMENTAL_SETUP: Compound Concentration (nM):1000
Reported Percent Control values are given for each entry in this list.
The response must be a number in % with no trailing unit.

Prompt: Given the compound CN(C)CCNC(=O)Nc1ccc(N(C)c2ccnc(Nc3ccc(CS(C)(=O)=O)cc3)n2)cc1.Cl [GW830900A] , what is its reported Percent Control?
Response: 86

Prompt: Given the compound `COc1cc(C)c(N(C)C(=O)CN(C)C)cc1Nc1nc(Nc2cccc(F)c2C(N)=O)c2cc[nH]c2n1` , what is its reported Percent Control?
Response: 100

Prompt: Given the compound Cl.O=C(Nc1ccc(Oc2ccc3[nH]c(NC(=O)c4ccccc4)nc3c2)cc1)Nc1cc(C(F)(F)F)ccc1F [GW709042A] , what is its reported Percent Control?
Response: 31

====

- System: CAMKK2
- EXPERIMENTAL_SETUP: Compound Concentration (nM):1000
OBSERVED_PROPERTY: Percent Control (%)
The response must be a number in % with no trailing unit.

Record excerpt, results attached:
Prompt: Any idea what Percent Control came out for O=C1Nc2ccc(C(=O)c3ccco3)cc2C1=Cc1cc(Cl)c(O)c(Cl)c1 [GW406108X] on CAMKK2?
Response: 31

Prompt: Any idea what Percent Control came out for O=C(Nc1n[nH]c2nc(-c3ccc(O)cc3)c(Br)cc12)C1CC1 [SB-725317] on CAMKK2?
Response: 100

Prompt: Any idea what Percent Control came out for Cl.c1ccc(Cc2nc3ccc(Nc4ncnc5ccccc45)cc3[nH]2)cc1 [GR269666A] on CAMKK2?
Response: 100

Continuing:
Prompt: Any idea what Percent Control came out for CCn1c(-c2nonc2N)nc2c(C#CC(C)(C)O)nc(OCCNC)cc21.Cl [GSK949675] on CAMKK2?
Response: 100

Prompt: Any idea what Percent Control came out for CC1=C(C(=O)Nc2ccc3[nH]ncc3c2)C(c2ccc3ccccc3c2)CC(=O)N1 (centres unmarked) [GSK270822A] on CAMKK2?
Response: 69

====

- Tested on: ROS1
- EXPERIMENTAL_SETUP: Compound Concentration (nM):1000
Reported Percent Control values are given for each entry in this list.
Could you give the number and then its unit, please?

Record excerpt, results attached:
Prompt: Any idea what Percent Control came out for CC1=C(C(=O)Nc2ccc3[nH]ncc3c2)C(c2ccc3ccccc3c2)CC(=O)N1 (stereo not shown) [GSK270822A] on ROS1?
Response: 81%

Prompt: Any idea what Percent Control came out for CCS(=O)(=O)c1ccc(OC)c(Nc2ncc(-c3cccc(OC)c3)o2)c1 [GW580509X] on ROS1?
Response: 92%

Prompt: Any idea what Percent Control came out for Cl.O=C(Nc1ccc(Oc2ccc3[nH]c(NC(=O)c4ccccc4)nc3c2)cc1)Nc1cc(C(F)(F)F)ccc1F [GW709042A] on ROS1?
Response: 67%

Could you now consider this next compound?
Prompt: Any idea what Percent Control came out for Nc1ncnc2occ(-c3ccc(NC(=O)Nc4cc(C(F)(F)F)ccc4F)cc3)c12 [GW770249X] on ROS1?
Response: 56%

====

- System: CAMKK1
- EXPERIMENTAL_SETUP: Compound Concentration (nM):1000
Reported Percent Control values are given for each entry in this list.
The response must be a number in % with no trailing unit.

Prompt: Given the compound NS(=O)(=O)c1ccc(N/N=C2\C(=O)Nc3ccc(C(=O)NCCc4c[nH]cn4)cc32)cc1 [GW300660X] , what is its reported Percent Control?
Response: 100

Prompt: Given the compound CN1CCN(C(=O)c2ccc(NC(=O)Nc3ccc(N(C)c4ccnc(Nc5ccc(CS(C)(=O)=O)cc5)n4)cc3)cc2)CC1.Cl [GW830263A] , what is its reported Percent Control?
Response: 28

Prompt: Given the compound CCS(=O)(=O)c1ccc(OC)c(Nc2ncc(-c3cccc(OC)c3)o2)c1 [GW580509X] , what is its reported Percent Control?
Response: 97

Prompt: Given the compound COc1cc(C=NNc2ncnc3c2cnn3-c2ccccc2)ccc1O [GW513184X] , what is its reported Percent Control?
Response: 100

Prompt: Given the compound C[C@@H](Oc1cc(-n2cnc3ccc(OC4CCN(C)CC4)cc32)sc1C(N)=O)c1ccccc1Cl [GSK579289A] , what is its reported Percent Control?
Response: 85

Continuing:
Prompt: Given the compound CC1=C(C(=O)Nc2ccc3[nH]ncc3c2)C(c2ccc3ccccc3c2)CC(=O)N1 (stereo not drawn) [GSK270822A] , what is its reported Percent Control?
Response: 70

====

- Tested on: CTK
- Construct: gene MATK
- EXPERIMENTAL_SETUP: Compound Concentration (nM):1000
OBSERVED_PROPERTY: Percent Control (%)
The response must be a number in % with no trailing unit.

Record excerpt, results attached:
Prompt: Given the molecule `NS(=O)(=O)c1ccc(N/N=C2\C(=O)Nc3ccc(-c4cnco4)cc32)cc1` , what is its reported Percent Control?
Response: 78

Prompt: Given the molecule COc1cc(/C=N/Nc2ncnc3[nH]ncc23)ccc1O [GW578748X] , what is its reported Percent Control?
Response: 97

Prompt: Given the molecule COc1cccc(-c2c[nH]c3c(N/N=C/c4ccncc4)ncnc23)c1 [GW814408X] , what is its reported Percent Control?
Response: 100

Prompt: Given the molecule CC(C)COC(=O)c1ccc2c(c1)/C(=C/Nc1ccc(S(N)(=O)=O)cc1)C(=O)N2 [GW416981X] , what is its reported Percent Control?
Response: 100

Prompt: Given the molecule CC1=C(C(=O)Nc2ccc3[nH]ncc3c2)C(c2ccc3ccccc3c2)CC(=O)N1 (centres unmarked) [GSK270822A] , what is its reported Percent Control?
Response: 54

Continuing:
Prompt: Given the molecule COc1ccc2c(-c3ccnc(Nc4cccc(OC(F)(F)F)c4)n3)cnn2n1 [GW810372X] , what is its reported Percent Control?
Response: 100

Prompt: Given the molecule C[C@@H](Oc1cc(-n2cnc3ccc(OC4CCN(C)CC4)cc32)sc1C(N)=O)c1ccccc1Cl [GSK579289A] , what is its reported Percent Control?
Response: 100

Prompt: Given the molecule Cl.O=S1CCN(Cc2ccc(-c3ccc4ncnc(Nc5ccc(OCc6ccccc6)c(F)c5)c4c3)o2)CC1 [GW576924A] , what is its reported Percent Control?
Response: 100

====

Reported Percent Control values are given for each entry in this list.
- Test system: EPHB4
- EXPERIMENTAL_SETUP: Compound Concentration (nM):1000

Record excerpt, results attached:
Prompt: Any idea what Percent Control came out for `COc1cc(C)c(N(C)C(=O)CN(C)C)cc1Nc1nc(Nc2cccc(F)c2C(N)=O)c2cc[nH]c2n1` on EPHB4?
Response: 100%

Prompt: Any idea what Percent Control came out for CN(C)CCNC(=O)Nc1ccc(N(C)c2ccnc(Nc3ccc(CS(C)(=O)=O)cc3)n2)cc1.Cl [GW830900A] on EPHB4?
Response: 100%

Prompt: Any idea what Percent Control came out for COc1ccccc1-c1cc(/C=C2\C(=O)Nc3ncc(Br)cc32)cc(Br)c1O [GW442130X] on EPHB4?
Response: 100%

Continuing:
Prompt: Any idea what Percent Control came out for CC1=C(C(=O)Nc2ccc3[nH]ncc3c2)C(c2ccc(Cl)c(Cl)c2)CC(=O)N1 (stereo not shown) [GSK299115A] on EPHB4?
Response: 94%
